# experimental-target: 2CC-core
# protocol: SPR, antigen on chip, IgG injected
assay-readout: kon (M⁻¹ s⁻¹)
Answer format: numeric, M⁻¹ s⁻¹ implied, no suffix.

Q. Request the reported kon associated with 3BNC156 (antibody, V domains shown, also called 3BNC156HC; 3bnc156kc) VH: QVQLVQSGAALKKPGASLRISCQTYGYKFTDHLIYWWRQAPGQGLEWIGWIKPETGQPSYSYRFQGRVSLTRDTFEEIVFMDLRGLRSDDTAIYFCARRHSDYCDFDVWGGGSQVIVSS VL: DIQMTQSPSSLSASVGDTVTITCQTNKGYLNWYQQKRGRAPKLLMYDGSKLVTGVPSRLSGRRWGTQYNLTIGSLQPEDIATYYCQVYEFFGPGTRLDLKR
A. 18800

Q. Request the reported kon associated with 1B2530 (antibody, V domains shown, also called LSSB2530HC; LSSB2530LC) VH: QVRLEQSGAAMRKPGASVTLSCQASGYNFVKYIIHWVRQKPGLGFEWVGMIDPYRGRPWSAHKFQGRLSLSRDTSMEILYMTLTSLKSDDTATYFCARAEAASDSHSRPIMFDHWGQGSRVTVSS VL: QSALTQPPSASGAPGQRVTISCSGGPSNVGGNYVYWYRQFPGTAPTLLILRDDQRPSGVPDRFSASKSGNSASLAISGLRPDDEGFYFCATYDSDGSIRLFGGGTALTVLS
A. 68300

Q. Request the reported kon associated with 8ANC195 (antibody, V domains shown, also called 8ANC195HC; 8ANC195KC) VH: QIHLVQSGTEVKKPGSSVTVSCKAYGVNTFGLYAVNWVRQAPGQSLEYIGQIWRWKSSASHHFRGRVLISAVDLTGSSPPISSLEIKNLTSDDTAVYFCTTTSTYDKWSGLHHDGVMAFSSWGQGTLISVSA VL: DIQMTQSPSTLAASIGGTVRVSCRASQSITGNWVAWYQQRPGKAPRLLIYRGAALLGGVPSRFSGSAAGTDFTLTIGNLQAEDFGTFYCQQYDTYPGTFGQGTKVEVKR
A. 24100
